Protocol Description: Equilibrium solubility by the shake-flask method with HPLC-UV analysis
Type: physicochemical
Assay Context: simulated colonic fluid (SCF), fassgf or other biorelevant, thermodynamic from solid, simulated colonic fluid pH 7.8, 37 °C, shake-flask, n = 3, read-out: [PZQ] in SCF attained in 24 hours
Assay Metric: solubility thermodynamic at 24 h (µg/mL)
Value expressed in µg/mL; do not type the unit.

Enquiry: Reported solubility thermodynamic at 24 h, compound O=C(C1CCCCC1)N1CC(=O)N2CCc3ccccc3C2C1 (stereo not shown) : ____
Return: 220

----------
Protocol Description: Equilibrium solubility by the shake-flask method with HPLC-UV analysis
Type: physicochemical
Assay Context: ultrapure water, 37 °C, shake-flask, n = 3
Procedure: The stock solution of PZQ (2 mg/mL) was prepared by dissolving the pure compound in MeCN. Corresponding aliquots were diluted with the same solvent for the preparation of working PZQ solutions. […] The solubility of the obtained PZQ cocrystals was determined by the shake-flask method. […] At different time intervals (10, 20, 30, 40, 50, 60, and 90 min), an aliquot of 200 μL of each sample was collected after centrifugation, filtered, and analyzed concerning the PZQ content by HPLC-UV analysis. […]
Assay Metric: [PZQ] in H2O attained in 24 hours (µg/mL)
Value expressed in µg/mL; do not type the unit.

Enquiry: Reported [PZQ] in H2O attained in 24 hours, molecule O=C(C1CCCCC1)N1CC(=O)N2CCc3ccccc3C2C1.O=C(O)c1cccc(O)c1 (stereo not drawn) [Co-Crystal 7, PZQ – 3-HYDROXYBENZOIC ACID (3HBA) (1:1)] : ____
Return: 252.60

Enquiry: Reported [PZQ] in H2O attained in 24 hours, molecule O.O=C(C1CCCCC1)N1CC(=O)N2CCc3ccccc3C2C1.O=C(O)c1ccccc1O (stereo not drawn) [Co-Crystal 6, PZQ – SALICYLIC ACID (SAL) – H2O] : ____
Return: 220.38

Enquiry: Reported [PZQ] in H2O attained in 24 hours, molecule O=C(C1CCCCC1)N1CC(=O)N2CCc3ccccc3C2C1.O=C(O)c1ccc(O)cc1 (stereo not drawn) [Co-Crystal 5, PZQ – 4-HYDROXYBENZOIC ACID (4HBA)] : ____
Return: 225.06
